target or test system: TIP48/TIP49 complex (Homo sapiens, UniProt Q9Y230+Q9Y265)
Sequence (Q9Y230 whole entry): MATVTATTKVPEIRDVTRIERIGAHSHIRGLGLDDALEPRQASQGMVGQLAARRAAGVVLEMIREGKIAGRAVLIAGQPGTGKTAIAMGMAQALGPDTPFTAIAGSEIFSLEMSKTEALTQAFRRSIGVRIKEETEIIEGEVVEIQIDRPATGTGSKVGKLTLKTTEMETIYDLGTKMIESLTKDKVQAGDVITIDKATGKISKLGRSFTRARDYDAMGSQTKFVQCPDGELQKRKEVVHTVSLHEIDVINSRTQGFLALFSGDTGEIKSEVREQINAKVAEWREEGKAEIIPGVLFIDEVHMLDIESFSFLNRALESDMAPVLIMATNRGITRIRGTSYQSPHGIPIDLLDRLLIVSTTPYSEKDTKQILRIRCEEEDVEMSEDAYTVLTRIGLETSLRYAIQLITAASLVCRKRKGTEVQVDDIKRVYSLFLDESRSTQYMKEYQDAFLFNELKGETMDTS
Sequence (Q9Y265 whole entry): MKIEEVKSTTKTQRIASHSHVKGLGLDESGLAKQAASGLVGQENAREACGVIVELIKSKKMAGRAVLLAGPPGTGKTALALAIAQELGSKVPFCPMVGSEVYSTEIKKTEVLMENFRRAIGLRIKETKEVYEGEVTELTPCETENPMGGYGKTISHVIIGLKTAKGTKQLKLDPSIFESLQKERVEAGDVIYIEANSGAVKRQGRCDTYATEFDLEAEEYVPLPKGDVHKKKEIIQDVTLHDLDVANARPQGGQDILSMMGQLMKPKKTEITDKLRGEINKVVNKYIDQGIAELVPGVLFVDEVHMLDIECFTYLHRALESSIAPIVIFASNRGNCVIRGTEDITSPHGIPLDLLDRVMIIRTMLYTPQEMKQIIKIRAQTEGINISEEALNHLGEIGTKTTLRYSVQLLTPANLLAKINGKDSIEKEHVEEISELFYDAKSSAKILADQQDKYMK
procedure details: ATPase assay of TIP48/TIP49 complex (ADP-Glo)
experimental setup: concentration at which the ATPase activity was inhibited by 50%
pIC50: −log10 of the molar value.
measurement name: pIC50

Recorded results for 3 compounds are shown here.
compound: Cc1c(NC(=O)CC(C)(O)CNC(=O)c2cc(Cl)c(F)cc2OC(C)C)c(=O)n(-c2ccccc2)n1C (stereo not drawn)
experimental result: 7.00
--
compound: Cc1cc2cc(Cl)cc(C(=O)NCC(C)(C)CC(=O)Nc3c(CCCN(C)C)n(C)n(-c4ccccc4)c3=O)c2o1
experimental result: 7.36
--
compound: CCOc1cc(F)c(Cl)cc1C(=O)NCC(C)(C)CC(=O)Nc1c(C[C@H](C)N(C)C)n(C)n(-c2ccccc2)c1=O
experimental result: 7.44

[1] COCOc1cc(F)c(Cl)cc1C(=O)NCC(C)(C)CC(=O)Nc1c(CCN(C)C)n(C)n(-c2ccccc2)c1=O
[2] CCOc1ccc(Cl)cc1C(=O)NCC(C)(C)CC(=O)Nc1c(CCN(C)CCF)n(C)n(-c2ccccc2)c1=O
[3] CCOc1ncc(Cl)cc1C(=O)NCC(C)(C)CC(=O)Nc1c(C(C)CNC)n(C)n(-c2ccccc2)c1=O (stereo not drawn)
Query: Put the items in order so that reported pIC50 rises from first to last. Answer with the labels in sequence, matching the requested order.
Result: 3, 1, 2

* * *

Tested on: human lymphoma cell line RAMOS cells
procedure details: Cell growth inhibition test using RAMOS cell, ATP assay (CellTiter-Glo)
Assay type: cell-based
experimental setup: Homo sapiens, Ramos, 72 h, cultured 3 days, 50% growth inhibition concentration
Method: A cell growth inhibition test was carried out by treating human lymphoma cell line RAMOS cells with a test compound for a given period and then counting the number of viable cells by MTT assay or CellTiter-Glo Luminescent Cell Viability Assay (manufactured by Promega Corp.; hereinafter, referred to as ATP assay). […] The number of viable cells and luminescence intensity have been confirmed to correlate with each other. […] T/C % at each concentration of the test compound was determined. […]
measurement name: GI50 (nM)

compound: CNC(C)(C)Cc1c(NC(=O)CC(C)(C)CNC(=O)c2cc(Cl)cc3cc(C)oc23)c(=O)n(-c2ccccc2)n1C [Example 61]
GI50 [nM]: 390
--
compound: CCOc1ccc(Cl)cc1C(=O)NCC(C)(C)CC(=O)Nc1c(CCN(C)C)n(C)n(-c2ccccc2F)c1=O [Example 45]
GI50 [nM]: 480
--
compound: [2H]C([2H])([2H])N(CCc1c(NC(=O)CC(C)(C)CNC(=O)c2cc(Cl)ccc2OCC)c(=O)n(-c2ccccc2)n1C)C([2H])([2H])[2H] [Example 31]
GI50 [nM]: 170
--
compound: CCOc1ccc(Cl)cc1C(=O)NCC(C)(C)C(F)C(=O)Nc1c(CCN(C)C)n(C)n(-c2ccccc2)c1=O (stereo not drawn) [Example 91]
GI50 [nM]: 180
--
compound: CCOc1ncc(Cl)cc1C(=O)NCC(C)(C)CC(=O)Nc1c(C(CN(C)C)OC)n(C)n(-c2ccccc2)c1=O (stereo not drawn) [Example 81]
GI50 [nM]: 410

[A] CCOc1cc(F)c(Cl)cc1C(=O)NCC(C)(C)CC(=O)Nc1c(CCNC)n(C)n(-c2ccccc2)c1=O [Example 34]
[B] CCOc1ncc(Cl)cc1C(=O)NCC(C)(C)CC(=O)Nc1c(C(C)NC)n(C)n(-c2ccccc2)c1=O (stereo not drawn) [Example 2]
Query: Which entry has a larger number for GI50, A or B ? Which one? Tell me its label.
Result: A
(A: 470 nM, B: 250 nM)

[1] CCOc1ncc(Br)cc1C(=O)NCC(C)(C)CC(=O)Nc1c(CC(C)(C)NC)n(C)n(-c2ccccc2)c1=O [Example 60]
[2] CCOc1cc(F)c(Cl)cc1C(=O)NCC(C)(C)CC(=O)Nc1c(C(CN(C)C)OC)n(C)n(-c2ccccc2)c1=O (stereo not drawn) [Example 80]
Query: Which entry has a larger number for GI50, 1 or 2 ? Which one? Tell me its label.
Result: 1

[A] CNCC(C)c1c(NC(=O)CC(C)(C)CNC(=O)c2cc(Cl)cc3cc(C)oc23)c(=O)n(-c2ccccc2)n1C (stereo not drawn) [Example 78]
[B] CCOc1ccc(Cl)cc1C(=O)NCC(C)(C)CC(=O)Nc1c(CCN(C)C)n(CC)n(-c2ccccc2)c1=O [Example 40]
Query: Which entry has a larger number for GI50, A or B ? Which one? Tell me its label.
Result: A
